- experiment: physchem
- reported.conditions: water
- Description: Compound was evaluated for its solubility in water
# solubility listing for each entry below
endpoint.name: solubility (mM)

smiles.entry	endpoint.name	unit	readout.number
NS(=O)(=O)c1nn2c(=O)[nH]c(=O)nc2s1	solubility	mM	4
Cn1nc(S(N)(=O)=O)s/c1=N\C(=O)C(F)(F)F	solubility	mM	8

====

pKa values for the compounds below.
- experiment: physchem
- reported.conditions: buffer
- Description: Evaluated for sulfonamide pKa, free acid water solubility

smiles.entry	pKa
Cn1nc(S(N)(=O)=O)s/c1=N\C(=O)C(F)(F)F	6.6
NS(=O)(=O)c1nn2c(=O)[nH]c(=O)nc2s1	8.3
